Molecular target: Nicotinamide N-methyltransferase (Homo sapiens, UniProt P40261)
Sequence (P40261 whole entry): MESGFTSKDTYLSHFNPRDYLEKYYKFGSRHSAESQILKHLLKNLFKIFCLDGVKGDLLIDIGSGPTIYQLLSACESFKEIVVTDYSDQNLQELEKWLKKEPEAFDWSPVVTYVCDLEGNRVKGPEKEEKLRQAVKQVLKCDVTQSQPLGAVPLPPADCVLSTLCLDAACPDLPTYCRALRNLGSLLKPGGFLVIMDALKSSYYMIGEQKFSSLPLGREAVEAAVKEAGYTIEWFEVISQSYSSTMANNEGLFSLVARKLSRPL

chemical-smiles: NC(=O)c1cccc(CCN(CC[C@H](N)C(=O)O)C[C@H]2O[C@@H](n3cnc4c(N)ncnc43)[C@H](O)[C@@H]2O)c1
Kd / µM: 42.8

====

Molecular target: Nicotinamide N-methyltransferase (Homo sapiens)
Experiment: Inhibition of human NNMT (1 to 264 residues) expressed in Escherichia coli BL21 (DE3) using nicotinamide/SAM as substrate/co-factor measured for 20 mins by SAHH-coupled fluorescent assay
IC50 values for the compounds below.
property-measured: IC50

chemical-smiles: NC(=O)c1cccc(CCN(CCC[C@H](N)C(=O)O)C[C@H]2O[C@@H](n3cnc4c(N)ncnc43)[C@H](O)[C@@H]2O)c1
result: 14 µM

chemical-smiles: NC(=O)c1cccc(CCN(CC[C@H](N)C(=O)O)C[C@H]2O[C@@H](n3cnc4c(N)ncnc43)[C@H](O)[C@@H]2O)c1
result: 160 µM
